Subject of test: Tyrosine-protein kinase JAK3 (Homo sapiens)
Sequence (P52333 whole entry, the tested form may be a part): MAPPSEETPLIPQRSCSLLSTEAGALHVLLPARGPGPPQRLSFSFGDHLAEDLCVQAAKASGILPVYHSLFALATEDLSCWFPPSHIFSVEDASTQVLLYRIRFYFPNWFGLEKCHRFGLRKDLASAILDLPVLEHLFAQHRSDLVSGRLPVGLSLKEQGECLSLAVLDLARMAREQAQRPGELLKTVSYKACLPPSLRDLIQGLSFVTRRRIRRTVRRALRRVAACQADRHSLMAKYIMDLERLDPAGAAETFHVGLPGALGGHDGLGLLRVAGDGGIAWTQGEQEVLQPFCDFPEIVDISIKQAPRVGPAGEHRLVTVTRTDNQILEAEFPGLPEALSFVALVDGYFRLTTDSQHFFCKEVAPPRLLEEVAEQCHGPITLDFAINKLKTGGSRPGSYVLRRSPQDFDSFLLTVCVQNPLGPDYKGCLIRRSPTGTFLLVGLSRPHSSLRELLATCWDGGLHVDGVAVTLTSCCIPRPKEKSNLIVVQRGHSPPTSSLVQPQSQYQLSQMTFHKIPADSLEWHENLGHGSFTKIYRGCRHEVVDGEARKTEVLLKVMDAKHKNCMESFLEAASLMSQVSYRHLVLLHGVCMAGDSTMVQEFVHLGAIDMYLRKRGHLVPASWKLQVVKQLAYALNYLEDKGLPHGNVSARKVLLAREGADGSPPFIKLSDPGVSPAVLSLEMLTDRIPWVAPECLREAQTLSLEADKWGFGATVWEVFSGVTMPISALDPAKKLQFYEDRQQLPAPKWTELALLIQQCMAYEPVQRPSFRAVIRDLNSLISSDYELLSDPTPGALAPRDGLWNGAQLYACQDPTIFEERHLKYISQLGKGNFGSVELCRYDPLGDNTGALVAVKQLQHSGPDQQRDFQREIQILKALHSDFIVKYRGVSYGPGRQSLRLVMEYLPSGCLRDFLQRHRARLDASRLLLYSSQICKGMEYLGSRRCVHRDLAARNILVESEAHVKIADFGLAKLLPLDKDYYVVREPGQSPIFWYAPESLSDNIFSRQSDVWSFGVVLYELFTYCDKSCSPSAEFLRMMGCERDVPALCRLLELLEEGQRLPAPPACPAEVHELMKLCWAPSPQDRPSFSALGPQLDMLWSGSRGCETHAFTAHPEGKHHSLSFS
Test name: Inhibition of human recombinant C-terminal hexahistidine tagged JAK3 JH1 catalytic domain (811 to 1124 residues) expressed in baculovirus infected Sf9 cells using Tyr6 peptide as substrate incubated for 30 secs under shaking condition measured after 1 hr by Z'-LYTE assay
Result type: IC50 (nM)
Give just the number in nM; leave the unit off.

Use the examples below as a reference point.
Task: Could you tell me which IC50 is on file for COc1ccc(F)cc1C(C)Oc1cc(-c2cnn(C3CCNCC3)c2)cnc1N (stereo not given) ?
Output: 1580

Task: Could you tell me which IC50 is on file for CC(Oc1cc(-c2cccc(N3CCNCC3)c2)cnc1N)c1cc(F)ccc1Cl (stereo not given) ?
Output: 2790

Task: Could you tell me which IC50 is on file for CC(Oc1cc(-c2cn[nH]c2)cnc1N)c1cc(F)ccc1Cl (stereo not given) ?
Output: 965

Task: Could you tell me which IC50 is on file for CC(Oc1cc(-c2cnn(C3CCNCC3)c2)cnc1N)c1cc(F)ccc1Cl (stereo not given) ?
Output: 513

Next, consider the following compound.
Task: Could you tell me which IC50 is on file for COc1ccc(F)c(Cl)c1C(C)Oc1cc(-c2cnn(C3CCNCC3)c2)cnc1N (stereo not given) ?
Output: 1760
